B1: LINE1-full (parent)
chain: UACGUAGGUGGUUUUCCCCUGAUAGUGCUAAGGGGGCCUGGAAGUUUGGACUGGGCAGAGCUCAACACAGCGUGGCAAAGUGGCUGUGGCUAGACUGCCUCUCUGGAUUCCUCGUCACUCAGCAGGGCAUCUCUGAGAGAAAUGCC

# Variants of: B1
# experiment: self-cleavage, relative activity (ratio to wild type); higher = more cleavage; in vitro, sequencing; the parent is a self-cleaving ribozyme

mutation-id	self-cleavage
U29C C98U	0.42
A24G A77U	1.04
U14A C111A	0.72
G53A U96C	0
U109C A141G	1.46
U26C A59C	1.37
U1A U96G	0
A107G A141G	1.64
A57U A138G	0.15
A50U C120A	1.46
U14C A107G	1.22
U26C A138U	1.57
U45A C146U	1.37
A69U U119A	0.03
U9C A50G	1
C19U U62A	0.07
A50G G60A	0.04
U73A A78G	0.34
G49A	1
C56G A77G	0.04
C68U A138G	0.17
U100C U102A	1.95
G41A A140G	1.05
U47C G55A	0.65
G4A A65G	0
U91C A141U	0.51
G54A A140G	0.73
A140C A141G	0.41
A24U U87A	0.11
U62C G83U	0.03
U15A G44A	1.32
U12C U20A	1.23
A94G C131U	0.17
U13C G93A	0.17
A69U A129G	0.07
U45A U87A	0.09
U1C U108C	0.67
C63A A121U	0
U14C U91A	0.91
G82U A129G	1.54
U9A U115A	1.09
G93U A140G	0.05
U81A U104A	1.81
U46C C133U	1.13
U91A A92G	0.16
U47A A121G	1.39
